# Tested on: COR-L 105
# protocol notes: relative viability (nuclei count vs DMSO), 5 days (fraction); higher = more cells survive
# test parameters: first compound 20 µM
endpoint: relative viability
Write no unit; give the number alone.

See these solved cases before continuing.
- molecule: "COCC1(CO)C(=O)C2CCN1CC2 (stereo unspecified) [PRIMA-1MET] + Nc1nc2[nH]cc(CCc3ccc(C(=O)N[C@@H](CCC(=O)O)C(=O)O)cc3)c2c(=O)[nH]1 [Pemetrexed] (partner 0.2 µM)"
  reading: 0.229
- molecule: "COCC1(CO)C(=O)C2CCN1CC2 (stereo unspecified) [PRIMA-1MET] + O=C(c1cc(Cc2n[nH]c(=O)c3ccccc23)ccc1F)N1CCN(C(=O)C2CC2)CC1 [Olaparib] (partner 8 µM)"
  reading: 0.458
- molecule: "COCC1(CO)C(=O)C2CCN1CC2 (stereo unspecified) [PRIMA-1MET] + N=C(N)NC(=N)NCCc1ccccc1 [Phenformin] (partner 250 µM)"
  reading: 0.124
- molecule: "COCC1(CO)C(=O)C2CCN1CC2 (stereo unspecified) [PRIMA-1MET] + CC(C)C[C@H](NC(=O)[C@H](Cc1ccccc1)NC(=O)c1cnccn1)B(O)O [Bortezomib] (partner 0.002 µM)"
  reading: 0.163
- molecule: "COCC1(CO)C(=O)C2CCN1CC2 (stereo unspecified) [PRIMA-1MET] + CC(=O)c1c(C)c2cnc(Nc3ccc(N4CCNCC4)cn3)nc2n(C2CCCC2)c1=O [Palbociclib] (partner 0.5 µM)"
  reading: 0.16

Here's the next entry for you.
Lab note: measured relative viability of COCC1(CO)C(=O)C2CCN1CC2 (stereo unspecified) [PRIMA-1MET] + CS(=O)(=O)N1CCN(Cc2cc3nc(-c4cccc5[nH]ncc45)nc(N4CCOCC4)c3s2)CC1 [Pictilisib] (partner 1 µM) was 0.2
